Numbers sourced from patent US20250243176A1.

# test_name: Phase 1 single ascending dose plasma pharmacokinetics
# Type: in vivo, human
# details: both sexes, human, plasma, oral, 15 mg, Cohort 2, 15 mg single dose, fed, mean
endpoint: AUC(0-inf) (ng·h/mL)
Please reply with the bare figure in ng·h/mL and do not write the unit itself.

Retrieve AUC(0-inf) measured for C=CC(=O)N1CCC[C@@H](c2c(F)cc(C(N)=O)c3[nH]c4c(c23)CCCCC4)C1 [Compound 1] and print it.
339

---

# test_name: Phase 1 CSF penetrance (CSF/unbound plasma concentration)
# Assay type: in vivo
# details: both sexes, human, CSF, oral; Cohort 3, 45 mg single dose, mean; read-out: CSF Conc (2 hr)
endpoint: concentration at 2 h (ng/mL)
Dear colleague, please return just the value in ng/mL, with no unit written.

Note down concentration at 2 h recorded for C=CC(=O)N1CCC[C@@H](c2c(F)cc(C(N)=O)c3[nH]c4c(c23)CCCCC4)C1
2.07
